target: H3.3/H4 (human | X. laevis, UniProt P84243 1-136; P62799 1-103); assay: FP
ENDPOINT: pIC50
Remember the convention: pIC50 equals -log10 of concentration in molar.

BINDER	TEST_VALUE
UBN1(92–175) E147A (protein) NDEEKERHKVEALARKFEEKYGGKKRRKDRIQDLIDMGYGYDESDSFIDNSEAYDALVPASLTTKYGGFYINSGTLQFRQASES	4.64

Lookup: # lookup: pIC50 of UBN1(92–175) D146A (protein) NDEEKERHKVEALARKFEEKYGGKKRRKDRIQDLIDMGYGYDESDSFIDNSEAYAELVPASLTTKYGGFYINSGTLQFRQASES
Found: 4.64

Lookup: Now consider UBN1(92–175) M128A (protein) NDEEKERHKVEALARKFEEKYGGKKRRKDRIQDLIDAGYGYDESDSFIDNSEAYDELVPASLTTKYGGFYINSGTLQFRQASES and answer again.
Found: 4.65

Lookup: Now consider UBN1(92–175) Y145A (protein) NDEEKERHKVEALARKFEEKYGGKKRRKDRIQDLIDMGYGYDESDSFIDNSEAADELVPASLTTKYGGFYINSGTLQFRQASES and answer again.
Found: 4.79

Lookup: Now consider UBN1(92–175) S137A (domain or fragment) NDEEKERHKVEALARKFEEKYGGKKRRKDRIQDLIDMGYGYDESDAFIDNSEAYDELVPASLTTKYGGFYINSGTLQFRQASES and answer again.
Found: 4.79

Lookup: Now consider UBN1(92–175) L125A (protein) NDEEKERHKVEALARKFEEKYGGKKRRKDRIQDAIDMGYGYDESDSFIDNSEAYDELVPASLTTKYGGFYINSGTLQFRQASES and answer again.
Found: 4.82

Lookup: Now consider UBN1(92–175) I126A (protein) NDEEKERHKVEALARKFEEKYGGKKRRKDRIQDLADMGYGYDESDSFIDNSEAYDELVPASLTTKYGGFYINSGTLQFRQASES and answer again.
Found: 4.86

Lookup: Now consider UBN1(92–175) (domain or fragment) NDEEKERHKVEALARKFEEKYGGKKRRKDRIQDLIDMGYGYDESDSFIDNSEAYDELVPASLTTKYGGFYINSGTLQFRQASES and answer again.
Found: 4.78
